Experiment: AUC (0 to infinity) in CD1 mouse at 5 mg/kg, po administered via gavage
Format: ADME, organism-based
Design: dose 5 mg/kg, time infinity, route oral
Conditions: in vivo
measurement.name: AUC(0-inf) (µM·h)
// units = µM·h; emit number, no label

Can you look up the measured AUC(0-inf) of C=C(C)[C@@H]1CC[C@]2(NCCN3CCS(=O)(=O)CC3)CC[C@]3(C)[C@H](CC[C@@H]4[C@@]5(C)CC=C(c6ccc(C(=O)O)cc6)C(C)(C)[C@@H]5CC[C@]43C)[C@@H]12 [BMS-955176] for me?
28.9

* * *

Test: Protein binding in human serum at 53 nM after 1 hr by ultracentrifugation assay
Format: ADME, cell-free
Conditions: read-out: PB (converted)
measurement.name: fraction unbound at 1 h, 0.053 µM

Can you look up the measured fraction unbound at 1 h, 0.053 µM of "C=C(C)[C@@H]1CC[C@]2(NCCN3CCS(=O)(=O)CC3)CC[C@]3(C)[C@H](CC[C@@H]4[C@@]5(C)CC=C(c6ccc(C(=O)O)cc6)C(C)(C)[C@@H]5CC[C@]43C)[C@@H]12" for me?
0.139

These measurements were taken from ChEMBL document CHEMBL4152347.
